ASSAY_EXPLANATION: label from the status in PepcDB records

| MACROMOLECULE_SEQUENCE | protein production |
| --- | --- |
| MQPTGNQIQQNQQQQQQLIMRVPKQEVSVSGAARRYVQQAPPNRPPRQNHQNGAIGGKKSSVTIQEVPNNAYLETLNKSGNNKVDDDKLPVFLIKLWNIVEDPNLQSIVHWDDSGASFHISDPYLFGRNVLPHFFKHNNMNSMVRQLNMYGFRKMTPLSQGGLTRTESDQDHLEFSHPCFVQGRPELLSQIKRK | not failed |
| MIIESRIEKGKPVVGMETTVFVHGLPRKEAIELFRRAKEISREKGFQLAVIGILKGKIVAGMSEEELEAMMREGADKVGTREIPIVVAEGKNAATTVSATIFLSRRIGIEVVVTGGTGGVHPGRVDVSQDLTEMSSSRAVLVSSGIKSILDVEATFEMLETLEIPLVGFRTNEFPLFFSRKSGRRVPRIENVEEVLKIYESMKEMELEKTLMVLNPVPEEYEIPHDEIERLLEKIELEVEGKEVTPFLLKKLVEMTNGRTLKANLALLEENVKLAGEIAVKLKRS | not failed |
| MSLTRPLRADAARNRARVLEVAYDTFAAEGLGVPMDEIARRAGVGAGTVYRHFPTKQALVVAVAEDRVRRIVDHARTLLAAEGPGEALFVFMRDMVRSAAADYGLVDALVGYGLDLEVAAPGAEAAFLATLGELLAAAQRAGTVRADVDVAVIKALLVVCKVPQVYDGEVSERVVRVIEDGLRVRSSVEGHHHHHH | not failed |

Value source: a protein production outcome set (Wang et al. 2014)
